From: paper PMC10693550

Target: T1, S2h
T1 chain: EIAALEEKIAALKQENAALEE
Experiment: ITC; MicroCal PEAQ-ITC; syringe peptide (1 mM P5f, P13f; 5.6 mM S1h or 5.4 mM S3h) injected into the cell with the complementary peptide (100 µM P6f or P14f; 560 µM S2h or 540 µM S4h); 50 mM Tris pH 7.5, 150 mM NaCl, 1 mM TCEP; concentrations of the S peptides not stated
Conditions: both partners purified
pKd: −log10 of the molar value.
metric name: pKd

- binder: "KIAALKEEIAALEQKNAALKE [S1h]"
  meas value: 2.64
